# Assay Name: The drug is tested on Eubacterium rectale strain: ATCC33656 for biotransformation. The drug concentrations were measured before and after a 12-h incubation by liquid-chromatography-coupled mass spectrometry (LC–MS)
# Stated Conditions: agathobacter rectalis, 2 µM
Measured Parameter: Bacterial Biotransformation

CCOC(=O)[C@H](CCc1ccccc1)N[C@H]1CCc2ccccc2N(CC(=O)O)C1=O [BENAZEPRIL]    Compound NOT metabolized
CCCc1nn(C)c2c(=O)[nH]c(-c3cc(S(=O)(=O)N4CCN(C)CC4)ccc3OCC)nc12.O=C(O)CC(O)(CC(=O)O)C(=O)O [SILDENAFIL CITRATE]    Compound NOT metabolized
CN1CCC(=C2c3ccccc3CC(=O)c3sccc32)CC1.O=C(O)/C=C/C(=O)O [KETOTIFEN FUMARATE]    Compound NOT metabolized

* * *

# Assay Name: The drug is tested on Bacteroides fragilis strain: HMW610 for biotransformation. The drug concentrations were measured before and after a 12-h incubation by liquid-chromatography-coupled mass spectrometry (LC–MS)
# Stated Conditions: 2 µM
Measured Parameter: Bacterial Biotransformation

Field: example entries. Status: answers known.
CC(C)OC(=O)C(C)(C)Oc1ccc(C(=O)c2ccc(Cl)cc2)cc1 [FENOFIBRATE]    Compound NOT metabolized
C[N+]12CCC(CC1)C(OC(=O)C(O)(c1ccccc1)c1ccccc1)C2.[Br-] (stereo not drawn) [CLIDINIUM BROMIDE]    Compound NOT metabolized
COc1ccc2c3c1O[C@H]1C[C@@H](O)C=C[C@@]31CCN(C)C2    Compound metabolized
COc1cc(C(=O)NCc2ccc(OCCN(C)C)cc2)cc(OC)c1OC [TRIMETHOBENZAMIDE]    Compound NOT metabolized
OC(CCN1CCCCC1)(c1ccccc1)C1CCCCC1 (stereo not drawn)    Compound NOT metabolized
CCN(CC)C(=O)/C(C#N)=C/c1cc(O)c(O)c([N+](=O)[O-])c1    Compound metabolized
O=C1NCC2(CCN(CCc3ccccc3)CC2)O1 [FENSPIRIDE]    Compound metabolized

q: Any idea what Bacterial Biotransformation was measured for CS(=O)(=O)O.O.O.O.O=C1Cc2cc(CCN3CCN(c4nsc5ccccc45)CC3)c(Cl)cc2N1 [ZIPRASIDONE MESYLATE] ?
a: Compound NOT metabolized

* * *

# Stated Conditions: limosilactobacillus reuteri cf48-3a, 12 h, 2 µM
# Description: The drug is tested on Lactobacillus reuteri CF48-3A strain: BEI HM-102 for biotransformation. The drug concentrations were measured before and after a 12-h incubation by liquid-chromatography-coupled mass spectrometry (LC–MS)
Measured Parameter: Bacterial Biotransformation

COc1ccc(Cc2nccc3cc(OC)c(OC)cc23)cc1OC    Compound NOT metabolized
CCOC(=O)[C@H](CCc1ccccc1)N[C@@H](C)C(=O)N1[C@H](C(=O)O)C[C@H]2CCCC[C@@H]21    Compound NOT metabolized
O=c1[nH]c2ccccc2n1C1CCN(CCCC(c2ccc(F)cc2)c2ccc(F)cc2)CC1 [PIMOZIDE]    Compound NOT metabolized
OCCN(CCO)c1nc(N2CCCCC2)c2nc(N(CCO)CCO)nc(N3CCCCC3)c2n1    Compound NOT metabolized
CNCCC(Oc1ccc(C(F)(F)F)cc1)c1ccccc1 (stereo not drawn)    Compound metabolized

Please give Bacterial Biotransformation for each item listed below.
1. CCOC(=O)C1=C[C@]2(CC)CCCN3CCc4c(n1c1ccccc41)[C@@H]32
2. CN1CCc2c(c3ccccc3n2Cc2ccccc2)C1.CN1CCc2c(c3ccccc3n2Cc2ccccc2)C1.O=S(=O)(O)c1cccc2c(S(=O)(=O)O)cccc12
3. C[C@@H]1CC[C@H]2[C@@H](C)C(=O)O[C@@H]3O[C@@]4(C)CC[C@@H]1[C@]32OO4

a:
Compound NOT metabolized
Compound NOT metabolized
Compound metabolized

Source listed as ChEMBL document CHEMBL5303573.
